B1: Intersectin-1, residues 909 to 971; numbered along this chain, Q15811 (parent)
chain: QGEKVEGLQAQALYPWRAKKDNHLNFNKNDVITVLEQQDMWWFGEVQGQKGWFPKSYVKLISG

- Variants of: B1
- test-summary: abundance fitness (aPCA) (normalised: wild type 0, dead -1); higher = more abundant; growth selection in yeast, the domain comes from the species named
- experimental-conditions: Homo sapiens
endpoint: abundance fitness

The cases that follow already have their abundance fitness on record.
>>> result("QGEKVEGLQAQALYPWRAKKDNHLNFNKNDVITVLEQQDMWWFGEVQGQKGWFPKWYVKLISG [S56W]")
-0.393
>>> result("QGEKVEGLQAQALYPWRAKKDNHLNFNKNDSITVLEQQDMWWFGEVQGQKGWFPKSYVKLISG [V31S]")
-0.224
>>> result("QGEKVEGLQAQALYPWRAKKDNHLNFNKNDVITVLEQSDMWWFGEVQGQKGWFPKSYVKLISG [Q38S]")
-0.148

Consider the variant QGEKVEGLQAAALYPWRAKKDNHLNFNKNDVITVLEQQDMWWFGEVQGQKGWFPKSYVKLISG [Q11A] and give its measured abundance fitness.
-0.239

Ok, now QGEKVEGLQAQALYPWRAKKDNHLNFNKNDVITVLMQQDMWWFGEVQGQKGWFPKSYVKLISG [E36M]
-0.177
